Value source: PubChem BioAssay (NCI)

System: OVCAR-4 ovarian
Test: NCI tumour cell line growth inhibition, 48 h
readout.type: TGI

Incoming: Can you share its TGI? I mean this compound: O=S(=O)(/N=C(\NO)Nc1ccc(Cl)cc1)c1ccc(-c2ccccn2)s1
Outgoing: > 100 µM

Incoming: Also COc1ccc(N2C(=O)C3CC4=CC(=O)C[C@H]4[C@H]32)cc1 (stereo partly drawn) ?
Outgoing: > 100 µM

Incoming: Also CCOC(=O)NC(=O)c1c[nH]c(=O)[nH]c1=O ?
Outgoing: > 100 µM

Incoming: Also COc1cc2c(c(OC)c1OC)-c1ccc(SC)cc1C(=O)CC2 ?
Outgoing: > 100 µM

Incoming: Also NC(N)=NCC(N)C(=O)O (stereo not drawn) ?
Outgoing: > 100 µM

Incoming: Also COc1ccc2[nH]c(O)c(/C=c3/cc4c(c(-c5ccc(F)cc5)n3)=Nc3ccccc3-4)c2c1 ?
Outgoing: 4.12 µM

Incoming: Also COc1cc(C=O)cc(C=Nc2ccc(S(N)(=O)=O)cc2)c1O ?
Outgoing: > 100 µM

Incoming: Also Cc1c(C(=O)O[C@H]2[C@@H]3[C@H](C)CC[C@H]3[C@]3(C)O[C@@]2(C2CCCCC2)C[C@H]3OC(=O)CO)ccc2ccccc12 ?
Outgoing: 14.3 µM

Incoming: Also O=C(O)C(=O)CBr ?
Outgoing: 31.4 µM

Incoming: Also C[n+]1c(N)n(C(=O)OCc2ccccc2)c(=O)c2c1ncn2C(=O)OCc1ccccc1 ?
Outgoing: > 100 µM

Incoming: Also COc1cc(/C=N\O)nc(-c2ccccn2)c1 ?
Outgoing: > 100 µM

Incoming: Also Nc1c(-c2nc3ccccc3[nH]2)sc(=S)n1-c1ccc(Cl)cc1 ?
Outgoing: 40.4 µM

Incoming: Also C#CCCCC(=O)N(C(=O)CS(=O)CC)c1ccccc1 (stereo not drawn) ?
Outgoing: > 100 µM

====

Test system: HCT-15 colon
Assay: NCI tumour cell line growth inhibition, 48 h
readout.type: TGI

Incoming: Find the measured TGI: item O=C1N[C@@H](COc2ccc(C=Nc3ccc(CCc4ccc(N=Cc5ccc(OC[C@@H]6COC(=O)N6)cc5)cc4)cc3)cc2)CO1 , target or system HCT-15 colon.
Outgoing: > 100 µM

Incoming: Also COC[C@@H](Cc1ccc(OC)c(OC)c1)[C@@H](COC)Cc1ccc(OC)c(OC)c1 ?
Outgoing: > 100 µM

Incoming: Also CO[C@H](C(=O)O)[C@@H]1Cc2cc3cc(OC4CC(OC5CC(O)C(O)C(C)O5)C(O)C(C)O4)c(C)c(O)c3c(O)c2C(=O)[C@H]1OC1CC(OC2CC(OC3CC(C)(O)C(O)C(C)O3)C(O)C(C)O2)C(O)C(C)O1 (stereo partly specified) ?
Outgoing: > 32.5 µM

Incoming: Also CCOC(=O)c1ccccc1-c1c2ccc(=[N+](C)C)cc-2oc2cc(N(C)C)ccc12 ?
Outgoing: > 37.2 µM

Incoming: Also COc1cc2c(cc1OC)-c1ncc3cc4c(cc3c1C2)OCO4 ?
Outgoing: > 100 µM

Incoming: Also C=CC1(c2ccc(OC)cc2)OCCCO1 ?
Outgoing: > 100 µM

====

System: ACHN renal
Test: NCI tumour cell line growth inhibition, 48 h
Please respond with reported TGI for every item in the list.

Incoming: Find the measured TGI: item CN1B(c2ccccc2)N(C)C(=O)N(C)C1=O , target or system ACHN renal.
Outgoing: > 100 µM

Incoming: Also CC[C@H](NC(=O)[C@H](CS(=O)(=O)CC1CC1)N[C@@H](c1ccc(F)cc1)C(F)(F)F)C(=O)C(=O)NC1CC1 ?
Outgoing: > 100 µM

Incoming: Also Cc1cc(O)c(C(c2ccncc2)c2c(O)cc(C)[nH]c2=O)c(=O)[nH]1 ?
Outgoing: > 100 µM

Incoming: Also CCCn1c(N)c(C(=O)CNc2ccc(I)cc2)c(=O)[nH]c1=O ?
Outgoing: > 100 µM

Incoming: Also O=[N+]([O-])c1ccc2ncccc2c1CCc1c([N+](=O)[O-])ccc2ncccc12 ?
Outgoing: > 100 µM

Incoming: Also C#CCOC(=O)C(N)CCSC (stereo not given) ?
Outgoing: > 100 µM

Incoming: Also O=C1NC2(C=Cc3c(ccc4ccccc34)O2)Oc2ccccc21 (stereo not given) ?
Outgoing: 77.7 µM

Incoming: Also NS(=O)(=O)c1ccc(NC(=O)COC(=O)c2cccc3c(=O)c4ccccc4[nH]c23)cc1 ?
Outgoing: 71.9 µM

Incoming: Also C=CCC(CNC(=O)OCc1ccccc1)OC(=O)OCc1ccccc1 (stereo not given) ?
Outgoing: > 100 µM

Incoming: Also NC(=O)N/N=C(/c1nc2ccc([N+](=O)[O-])cc2[nH]c1=O)C(O)c1ccco1 (stereo not given) ?
Outgoing: > 100 µM

Incoming: Also COc1ccccc1NCC(=O)Nn1c(C)nc2ccc(S(=O)(=O)Nc3ccccc3OC)cc2c1=O ?
Outgoing: > 100 µM

Incoming: Also COc1cc(C=O)cc(C=Nc2ccc(S(N)(=O)=O)cc2)c1O ?
Outgoing: 35.2 µM

Incoming: Also CN(C)CC1CCCC/C1=N/OC(=O)c1ccc(Cl)c(Cl)c1 (stereo not given) ?
Outgoing: > 100 µM

Incoming: Also NCP(=O)(O)OCC(=O)O ?
Outgoing: > 100 µM

Incoming: Also CC(=O)CC(=O)/C=C/c1cccs1 ?
Outgoing: > 100 µM

Incoming: Also O=C1OC(=O)C2C1C(c1ccccc1[N+](=O)[O-])C=C(c1ccco1)N2c1ccncc1 (stereo not given) ?
Outgoing: 3.24 µM

Incoming: Also CC[C@H](C)C1=C(OC(C)=O)[N@+]2([O-])Oc3ccc(-c4c(OC(C)=O)c(OC(C)=O)c(-c5ccc(OC(C)=O)cc5)c(OC(C)=O)c4OC(C)=O)cc3O[C@]2([C@@H](C)CC)C(=O)N1OC(C)=O ?
Outgoing: > 50 µM

Incoming: Also O=C1N[C@@H](COc2ccc(C=Nc3ccc(CCc4ccc(N=Cc5ccc(OC[C@@H]6COC(=O)N6)cc5)cc4)cc3)cc2)CO1 ?
Outgoing: > 100 µM

Incoming: Also CCCCCCCCCCCCCCCCP(=O)([O-])OCC[N+](C)(C)C ?
Outgoing: 31.9 µM

Incoming: Also C[n+]1c(N)n(C(=O)OCc2ccccc2)c(=O)c2c1ncn2C(=O)OCc1ccccc1 ?
Outgoing: > 100 µM
